// reported Kd per item
- measured.target: Ec65 (Escherichia coli, UniProt P0A6X3 1-65, del66-102)
- method.notes: EMSA; Hill n 1.0; EMSA: 34 mM Tris-HCl pH 7.5, 50 mM NaCl, 50 mM KCl, 50 mM NH4Cl, 11.4 mM EDTA, 12% glycerol, 30 C, 30 min, ~1 nM 32P-RNA, Kd in Hfq6; anisotropy: 10 mM Tris-HCl
- run.conditions: protein: recombinant; tags: untagged; chain copies: 6; label: 32P; stem-loops
attribute.measured: Kd (nM)

binder="ChiX (structured_RNA) RNA: GGGACACCGUCGCUUAAAGUGACGGCAUAAUAAUAAAAAAAUGAAAUUCCUCUUUGACGGGCCAAUAGCGAUAUUGGCCAUUUUUUU" unit_of_measure=nM obs_value=95
binder="R157 (structured_RNA) RNA: GGUGAGGCGCCGAGCGCCUCUGCCCUUCCUGGGCGUUUCCUCCCUAUGACUUUGUAGCCCGGUCUUCAUGGCCGGGCUUUCUUUUU" unit_of_measure=nM obs_value=6.3
